Assignment: determine reported growth for the given compounds.
# Tested on: A549/ATCC NSCLC
# method summary: NCI-60 one-dose screen, 48 h (100 = growth as untreated, 0 = no growth, -100 = all killed)
# condition parameters: 10 µM unless noted
The panel holds about 83,000 compounds, 20% with a hit somewhere; the sample as a whole holds those more often.
Give bare numbers, in %.

Reference set (4 entries):
# compound, target desc, growth [%]
records = [
    ("Cc1ccc(NC(=O)Cn2c(Br)nc3c2c(=O)n(C)c(=O)n3C)cc1", "A549/ATCC NSCLC", 27.1),
    ("C=C1C(=O)O[C@H]2[C@H]1CC/C(COC(=O)c1cc3cc(Cl)ccc3[nH]1)=C\\CC[C@@]1(C)O[C@@H]21", "A549/ATCC NSCLC", -67.5),
    ("O=c1c2ccccc2c(=O)c2c1sc1c(=O)c3ccc(O)cc3c(=O)c12", "A549/ATCC NSCLC", -55.1),
    ("Cc1ccc2c(=O)cc(C(=O)Nc3sc4c(c3C(=O)NCc3cccnc3)CCCC4)oc2c1C", "A549/ATCC NSCLC", 98.4),
]

Value sought for every listed compound: growth.
1. CN(Cc1cc(Br)cc(Br)c1O)Cc1cc(Br)cc(Br)c1O
2. COc1ccc(C2CC(c3cc(OC)c(OC)c(OC)c3)=NO2)cc1OCCCCOc1cc2c(cc1OC)C(=O)N1CCC[C@H]1C=N2 (some centres undefined)
3. COc1ccc(C(O)c2cc3c(N)c(C(=O)Nc4cccc(Cl)c4C)sc3nc2C)cc1 (centres undefined)
4. COc1cc(-c2nc3cc(Cl)c(Cl)cc3[nH]2)ccc1OCC(=O)N=Nc1c(O)[nH]c2ccc(Cl)cc12
5. c1ccc2c(c1)CCCc1nnc3nc4ccccc4n3c1-2
6. Cc1ccc(C(=O)Nc2cccc(C#Cc3cccc4[nH]nc(N)c34)c2)cc1C(F)(F)F

1: 36.8; 2: 20; 3: 10.5; 4: 45.8; 5: 29.9; 6: 67.5

Quick one: give me growth for each item below, same order please.
1. Cc1ccc(C2CC(c3nc(-c4ccc(Cl)cc4)oc3C)=NN2C(=O)c2ccncc2)cc1 (centres undefined)
2. O=C(CN1CCN(c2cc3c(cc2F)c(=O)c(C(=O)O)cn3C2CC2)CC1)N/N=C/c1ccco1
3. CC(C)(C)n1cc(-c2ccnc(NCCNS(=O)(=O)c3ccc(O)cc3)c2)c(-c2cccc(O)c2)n1

1. 84.4
2. 90.6
3. 97.3
